Target: CCK2 receptor (Homo sapiens)
Construct: Membranes were prepared from the HEKZFP cells after induction; endogenous in cells; membrane preparation
Sequence (P32239 1-447): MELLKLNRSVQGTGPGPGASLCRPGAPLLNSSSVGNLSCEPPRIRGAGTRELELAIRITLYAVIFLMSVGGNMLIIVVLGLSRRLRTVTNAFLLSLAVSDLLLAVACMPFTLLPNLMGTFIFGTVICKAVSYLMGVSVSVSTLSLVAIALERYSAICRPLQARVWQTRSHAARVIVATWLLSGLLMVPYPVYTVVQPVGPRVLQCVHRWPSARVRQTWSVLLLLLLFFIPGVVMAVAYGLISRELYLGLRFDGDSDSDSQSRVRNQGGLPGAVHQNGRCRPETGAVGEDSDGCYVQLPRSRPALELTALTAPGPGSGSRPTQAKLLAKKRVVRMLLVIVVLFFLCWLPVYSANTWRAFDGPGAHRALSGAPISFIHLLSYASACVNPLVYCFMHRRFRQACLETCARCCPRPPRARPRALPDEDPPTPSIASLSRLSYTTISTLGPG
Test: CCK2 receptor radioligand binding assay ([125I]-BH-CCK-8S, HEKZFP cell membranes)
Details: competition with [125I]-BH-CCK-8S, membranes of induced HEKZFP cells, 60 min at 21±3° C., Cheng-Prusoff
Please respond with Condition met when measured Ki is strictly beneath 80 nM, and with Condition not met in all other cases.

Consider the worked cases shown below.
>  <compound>
C[C@@H]1COC[C@H](C)N1C(=O)c1ccc(Br)cc1NS(=O)(=O)c1cccc2nccnc12 [Example 27]

>  <assignedLabel>
Condition not met

$$$$
>  <compound>
O=C(N[C@@H](c1ccc(F)cc1F)C(F)(F)F)c1ccc(Cl)cc1NS(=O)(=O)c1cccc2nccnc12 [Example 29]

>  <assignedLabel>
Condition not met

$$$$
>  <compound>
C[C@H](c1ccccc1)N(C)C(=O)c1ccc(I)cc1NS(=O)(=O)c1cccc2nccnc12 [Example 34]

>  <assignedLabel>
Condition met

$$$$

# input Ki under 80 nM? Item: C[C@@H](NC(=O)c1ccc(I)cc1NS(=O)(=O)c1cccc2nccnc12)c1ccc(F)cc1F [Example 15]
# output Condition met

# input Ki under 80 nM? Item: O=C(NCc1ccc(Cl)cc1Cl)c1ccc(Cl)cc1NS(=O)(=O)c1cccc2nccnc12 [Example 58]
# output Condition met

# input Ki under 80 nM? Item: C[C@@H](NC(=O)c1ccc(C(F)(F)F)cc1NS(=O)(=O)c1cccc2nccnc12)c1ccc(F)cc1F [Example 36]
# output Condition met

# input Ki under 80 nM? Item: O=C(c1ccc(I)cc1NS(=O)(=O)c1cccc2nccnc12)N1CCCCCC1 [Example 18]
# output Condition met

----------
Biological target: CCK2 receptor (Homo sapiens, UniProt P32239)
Construct: Membranes were prepared from the HEKZFP cells after induction; endogenous in cells; host or cells: HEKZFP cells (T-REx-293 with tet-inducible ZFP-VP16 specific for the CCK2R gene), doxycycline-induced; membrane preparation
Assay: CCK2 receptor radioligand binding assay ([125I]-BH-CCK-8S, HEKZFP cell membranes)
Conditions: competition with [125I]-BH-CCK-8S, membranes of induced HEKZFP cells, 60 min at 21±3° C., Cheng-Prusoff
Please respond with yes when measured Ki is strictly beneath 50 nM, and with no in all other cases.

>  <compound>
C[C@H](c1ccccc1)N(C)C(=O)c1ccc(Cl)cc1NS(=O)(=O)c1cccc2nccnc12 [Example 62]

>  <assignedLabel>
yes

$$$$
>  <compound>
O=C(c1ccc(Br)cc1NS(=O)(=O)c1cccc2nccnc12)N1CCCc2cc(F)ccc2C1 [Example 24]

>  <assignedLabel>
no

$$$$
>  <compound>
O=C(N[C@H](CF)c1ccc(F)cc1F)c1ccc(Cl)cc1NS(=O)(=O)c1cccc2nccnc12 [Example 78]

>  <assignedLabel>
yes

$$$$
>  <compound>
CN(Cc1ccc(F)cc1)C(=O)c1ccc(Br)cc1NS(=O)(=O)c1cccc2nccnc12 [Example 45]

>  <assignedLabel>
yes

$$$$
>  <compound>
C[C@@H](NC(=O)c1ccc(Cl)cc1NS(=O)(=O)c1cccc2nccnc12)c1ccc(Cl)cc1Cl [Example 43]

>  <assignedLabel>
yes

$$$$

# input Ki under 50 nM? Item: O=C(NCc1ccc(F)cc1F)c1ccc(Br)cc1NS(=O)(=O)c1cccc2nccnc12 [Example 17]
# output no

# input Ki under 50 nM? Item: O=C(N[C@H](CF)c1ccc(F)cc1)c1ccc(Cl)cc1NS(=O)(=O)c1cccc2nccnc12 [Example 72]
# output no
